Each recorded value in this set is attributed to ChEMBL document CHEMBL2380258.

Measured Target: Adenosine receptor A2a (Homo sapiens, UniProt P29274)
Sequence (P29274 whole entry): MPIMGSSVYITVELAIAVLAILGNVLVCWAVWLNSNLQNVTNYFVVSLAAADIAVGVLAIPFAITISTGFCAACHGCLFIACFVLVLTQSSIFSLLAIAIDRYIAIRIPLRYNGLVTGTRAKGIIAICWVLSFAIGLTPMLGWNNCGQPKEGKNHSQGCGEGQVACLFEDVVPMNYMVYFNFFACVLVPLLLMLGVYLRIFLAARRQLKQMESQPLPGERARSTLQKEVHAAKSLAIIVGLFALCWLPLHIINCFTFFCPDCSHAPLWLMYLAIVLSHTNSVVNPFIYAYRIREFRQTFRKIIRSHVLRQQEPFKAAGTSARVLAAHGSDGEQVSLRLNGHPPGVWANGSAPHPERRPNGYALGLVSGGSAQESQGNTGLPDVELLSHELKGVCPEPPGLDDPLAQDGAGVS
Procedure Details: Antagonist activity at recombinant human adenosine A2A receptor expressed in CHO cells assessed as inhibition of NECA-induced cAMP production after 60 mins
Assay type: functional, cell-based
Condition Context: read-out: pIC50 (converted)
Consider the following compounds; for each one, report its log10(IC50).
// stored as log10 of IC50 expressed in µM

Ask | I'd like to know its log10(IC50). The compound in question is CCCC(=O)Oc1ccc(CCNc2nc(N)n3nc(-c4ccco4)nc3n2)cc1
Reply | -1.53

Ask | I'd like to know its log10(IC50). The compound in question is CCCCCCCCCC(=O)Oc1ccc(CCNc2nc(N)n3nc(-c4ccco4)nc3n2)cc1
Reply | -0.74

Ask | I'd like to know its log10(IC50). The compound in question is Cn1c(-n2nccn2)nc2c(N)nc(NCCc3ccc(O)cc3)nc21
Reply | 0.99

Ask | I'd like to know its log10(IC50). The compound in question is CC(=O)Oc1ccc(CCNc2nc(N)n3nc(-c4ccco4)nc3n2)cc1
Reply | -1.41

Ask | I'd like to know its log10(IC50). The compound in question is CCOC(=O)CCCNc1nc(NCCc2ccc(O)cc2)nc2nc(-c3ccco3)nn12
Reply | 1.41

Ask | I'd like to know its log10(IC50). The compound in question is CCOC(=O)CCCOc1ccc(CCNc2nc(N)c3nc(-n4nccn4)n(C)c3n2)cc1
Reply | 0.96

Ask | I'd like to know its log10(IC50). The compound in question is Nc1nc(NCCc2ccc(Br)cc2)nc2nc(-c3ccco3)nn12
Reply | -0.74

Ask | I'd like to know its log10(IC50). The compound in question is CCn1c(=O)c2c(nc(/C=C/c3ccc(OCCCC(=O)NCCCCCC(=O)OC)c(OC)c3)n2C)n(CC)c1=O
Reply | 1.04

Ask | I'd like to know its log10(IC50). The compound in question is CCOC(=O)CCCOc1ccc(/C=C/c2nc3c(c(=O)n(CC)c(=O)n3CC)n2C)cc1OC
Reply | 0.64

Ask | I'd like to know its log10(IC50). The compound in question is CCCC(=O)Oc1ccc(CCNc2nc(N)c3nc(-n4nccn4)n(C)c3n2)cc1
Reply | 0.99
